Source: patent US20070110757A1

# Measurement Target: RSV F protein on respiratory syncytial virus (RSV-Long strain) (respiratory syncytial virus (Long strain)) (UniProt P12568)
# Sequence (P12568 26-574): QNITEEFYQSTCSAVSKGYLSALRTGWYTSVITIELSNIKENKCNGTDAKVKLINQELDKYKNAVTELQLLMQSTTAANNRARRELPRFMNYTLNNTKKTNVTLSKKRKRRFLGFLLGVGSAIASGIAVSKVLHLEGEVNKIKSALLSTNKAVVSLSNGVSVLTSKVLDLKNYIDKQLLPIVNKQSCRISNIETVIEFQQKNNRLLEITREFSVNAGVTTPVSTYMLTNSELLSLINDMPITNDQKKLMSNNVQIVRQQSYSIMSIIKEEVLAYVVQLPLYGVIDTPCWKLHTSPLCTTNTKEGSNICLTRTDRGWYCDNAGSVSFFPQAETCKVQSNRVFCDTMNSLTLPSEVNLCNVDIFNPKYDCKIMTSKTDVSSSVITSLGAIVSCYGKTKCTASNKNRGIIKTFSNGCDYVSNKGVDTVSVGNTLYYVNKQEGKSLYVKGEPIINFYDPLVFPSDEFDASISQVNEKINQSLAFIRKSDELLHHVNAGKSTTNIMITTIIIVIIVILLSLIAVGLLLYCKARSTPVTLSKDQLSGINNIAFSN
# Test: cell-based or functional assay
Recorded Fold Difference (Control IC50) for the following binders
Measurement Name: Fold Difference (Control IC50) (fold)

# Binder, Measurement Name, Test Result
records = [
    ("A8c7 monoclonal antibody (antibody, V domains shown) VH: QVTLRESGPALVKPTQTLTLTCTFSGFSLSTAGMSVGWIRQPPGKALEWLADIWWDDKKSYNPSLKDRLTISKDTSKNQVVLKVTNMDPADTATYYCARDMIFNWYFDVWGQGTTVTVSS VL: DIQMTQSPSTLSASVGDRVTITCSPSSRVGYMHWYQQKPGKAPKLLIYDTRYQSSGVPSRFSGSGSGTEFTLTISSLQPDDFATYYCFQGSGYPFTFGGGTKVEIK", "Fold Difference (Control IC50)", 14),
    ("P12f4 monoclonal antibody (antibody, V domains shown) VH: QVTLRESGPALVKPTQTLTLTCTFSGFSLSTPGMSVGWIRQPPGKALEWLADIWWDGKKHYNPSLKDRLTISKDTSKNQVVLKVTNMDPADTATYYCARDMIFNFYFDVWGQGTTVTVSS VL: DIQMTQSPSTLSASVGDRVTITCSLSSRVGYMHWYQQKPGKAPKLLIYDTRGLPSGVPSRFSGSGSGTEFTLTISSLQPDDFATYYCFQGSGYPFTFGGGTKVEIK", "Fold Difference (Control IC50)", 23),
    ("A1e9 Fab fragment (Fab, V domains shown) VH: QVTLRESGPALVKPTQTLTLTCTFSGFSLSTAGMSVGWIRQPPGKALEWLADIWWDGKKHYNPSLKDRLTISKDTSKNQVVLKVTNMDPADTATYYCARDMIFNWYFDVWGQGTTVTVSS VL: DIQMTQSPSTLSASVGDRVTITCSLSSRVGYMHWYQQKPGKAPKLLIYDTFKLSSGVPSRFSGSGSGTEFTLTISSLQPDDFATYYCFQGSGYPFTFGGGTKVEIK", "Fold Difference (Control IC50)", 4),
]
